Source listed as patent US12390440B2.

# System: P. multocida
# assay info: MIC, P. multocida
# condition notes: Pasteurella multocida, P. multocida 46572, murine efficacy challenge strain

- molecule: "CC[C@H]1OC(=O)[C@H](C)[C@@H](O[C@H]2C[C@@](C)(OC)[C@](O)(CNC3CCC3)[C@H](C)O2)[C@H](C)[C@@H](O[C@@H]2O[C@H](C)C[C@H]3[C@H]2OC(C(F)(F)F)N3C)[C@](C)(O)C[C@@H](C)CN[C@H](C)[C@@H](O)[C@]1(C)O (stereo partly drawn)"
  MIC: "> 64 µg/mL"
- molecule: "CC[C@H]1OC(=O)[C@H](C)[C@@H](O[C@H]2C[C@@](C)(OC)[C@](O)(CNCCO)[C@H](C)O2)[C@H](C)[C@@H](O[C@@H]2O[C@H](C)C[C@H]3[C@H]2OC(C(F)(F)F)N3C)[C@](C)(O)C[C@@H](C)CN[C@H](C)[C@@H](O)[C@]1(C)O (stereo partly drawn)"
  MIC: "> 64 µg/mL"
- molecule: "CCCNC[C@]1(O)[C@H](C)O[C@@H](O[C@H]2[C@H](C)[C@@H](O[C@@H]3O[C@H](C)C[C@H]4[C@H]3OC(C(F)(F)F)N4C)[C@](C)(O)C[C@@H](C)CN[C@H](C)[C@@H](O)[C@](C)(O)[C@@H](CC)OC(=O)[C@@H]2C)C[C@@]1(C)OC (stereo partly drawn)"
  MIC: "64 µg/mL"

---

# Tested on: IL-6
# assay info: Bovine whole blood assay, IL-6
# Format: cell-based
# condition notes: Bos taurus, fresh whole bovine blood, LPS 1 μg/mL
# Experimental: (protected from light) for 30 minutes.
pIC50: −log10 of the molar value.
quantity: pIC50

- molecule: "CC[C@H]1OC(=O)[C@H](C)[C@@H](O[C@H]2C[C@@](C)(OC)[C@](O)(CNCC3CCC(=O)N3)[C@H](C)O2)[C@H](C)[C@@H](O[C@@H]2O[C@H](C)C[C@H]3[C@H]2OC(C(F)(F)F)N3C)[C@](C)(O)C[C@@H](C)CN[C@H](C)[C@@H](O)[C@]1(C)O (some centres unmarked) [Example A-21]"
  quantity: "pIC50"
  censoring operator: "="
  recorded number: 4.11
- molecule: "CCCNC[C@]1(O)[C@H](C)O[C@@H](O[C@H]2[C@H](C)[C@@H](O[C@@H]3O[C@H](C)C[C@H](NC)[C@H]3O)[C@](C)(O)C[C@@H](C)CN[C@H](C)[C@@H](O)[C@](C)(O)[C@@H](CC)OC(=O)[C@@H]2C)C[C@@]1(C)OC [Example M9]"
  quantity: "pIC50"
  censoring operator: "<"
  recorded number: 3.60

---

# Tested on: IL-1β
# assay info: Bovine whole blood assay, IL-1β;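 further: compound concentration at which rising IL-1β release signals cytotoxicity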
# Format: cell-based
# condition notes: overstimulation of IL-1β, perceived cellular toxicity concentration
Catalogue of IL-1β OS of LPS values
quantity: IL-1β OS of LPS (µM)

- compound: "CC[C@H]1OC(=O)[C@H](C)[C@@H](O[C@H]2C[C@@](C)(OC)[C@](O)(CNCCN3CCOC3=O)[C@H](C)O2)[C@H](C)[C@@H](O[C@@H]2O[C@H](C)C[C@H]3[C@H]2OC(C(F)(F)F)N3C)[C@](C)(O)C[C@@H](C)CN[C@H](C)[C@@H](O)[C@]1(C)O (some centres unmarked)"
  censoring operator: "="
  recorded number: 40
- compound: "CCCNC[C@]1(O)[C@H](C)O[C@@H](O[C@H]2[C@H](C)[C@@H](O[C@@H]3O[C@H](C)C[C@H](NC)[C@H]3O)[C@](C)(O)C[C@@H](C)CN[C@H](C)[C@@H](O)[C@](C)(O)[C@@H](CC)OC(=O)[C@@H]2C)C[C@@]1(C)OC"
  censoring operator: ">"
  recorded number: 500
- compound: "CC[C@H]1OC(=O)[C@H](C)[C@@H](O[C@H]2C[C@@](C)(OC)[C@](O)(CNCc3ncc[nH]3)[C@H](C)O2)[C@H](C)[C@@H](O[C@@H]2O[C@H](C)C[C@H]3[C@H]2OC(C(F)(F)F)N3C)[C@](C)(O)C[C@@H](C)CN[C@H](C)[C@@H](O)[C@]1(C)O (some centres unmarked)"
  censoring operator: "="
  recorded number: 40
- compound: "CC[C@H]1OC(=O)[C@H](C)[C@@H](O[C@H]2C[C@@](C)(OC)[C@](O)(CNCCS(=O)(=O)N(C)C)[C@H](C)O2)[C@H](C)[C@@H](O[C@@H]2O[C@H](C)C[C@H]3[C@H]2OC(C(F)(F)F)N3C)[C@](C)(O)C[C@@H](C)CN[C@H](C)[C@@H](O)[C@]1(C)O (some centres unmarked)"
  censoring operator: "="
  recorded number: 40
- compound: "CC[C@H]1OC(=O)[C@H](C)[C@@H](O[C@H]2C[C@@](C)(OC)[C@](O)(CNCCS(C)(=O)=O)[C@H](C)O2)[C@H](C)[C@@H](O[C@@H]2O[C@H](C)C[C@H]3[C@H]2OC(C(F)(F)F)N3C)[C@](C)(O)C[C@@H](C)CN[C@H](C)[C@@H](O)[C@]1(C)O (some centres unmarked)"
  censoring operator: "="
  recorded number: 40
- compound: "CC[C@H]1OC(=O)[C@H](C)[C@@H](O[C@H]2C[C@@](C)(OC)[C@](O)(CN3CCOCC3)[C@H](C)O2)[C@H](C)[C@@H](O[C@@H]2O[C@H](C)C[C@H]3[C@H]2OC(C(F)(F)F)N3C)[C@](C)(O)C[C@@H](C)CN[C@H](C)[C@@H](O)[C@]1(C)O (some centres unmarked)"
  censoring operator: "="
  recorded number: 13
- compound: "CC[C@H]1OC(=O)[C@H](C)[C@@H](O[C@H]2C[C@@](C)(OC)[C@](O)(CNCCS(N)(=O)=O)[C@H](C)O2)[C@H](C)[C@@H](O[C@@H]2O[C@H](C)C[C@H]3[C@H]2OC(C(F)(F)F)N3C)[C@](C)(O)C[C@@H](C)CN[C@H](C)[C@@H](O)[C@]1(C)O (some centres unmarked)"
  censoring operator: "="
  recorded number: 100
- compound: "CC[C@H]1OC(=O)[C@H](C)[C@@H](O[C@H]2C[C@@](C)(OC)[C@](O)(CNCCO)[C@H](C)O2)[C@H](C)[C@@H](O[C@@H]2O[C@H](C)C[C@H]3[C@H]2OC(C(F)(F)F)N3C)[C@](C)(O)C[C@@H](C)CN[C@H](C)[C@@H](O)[C@]1(C)O (some centres unmarked)"
  censoring operator: "="
  recorded number: 32
- compound: "CC[C@H]1OC(=O)[C@H](C)[C@@H](O[C@H]2C[C@@](C)(OC)[C@](O)(CNCCCNS(C)(=O)=O)[C@H](C)O2)[C@H](C)[C@@H](O[C@@H]2O[C@H](C)C[C@H]3[C@H]2OC(C(F)(F)F)N3C)[C@](C)(O)C[C@@H](C)CN[C@H](C)[C@@H](O)[C@]1(C)O (some centres unmarked)"
  censoring operator: "="
  recorded number: 40
- compound: "CCCNC[C@]1(O)[C@H](C)O[C@@H](O[C@H]2[C@H](C)[C@@H](O[C@@H]3O[C@H](C)C[C@H]4[C@H]3OC(C(F)(F)F)N4Cc3ccccc3)[C@](C)(O)C[C@@H](C)CN[C@H](C)[C@@H](O)[C@](C)(O)[C@@H](CC)OC(=O)[C@@H]2C)C[C@@]1(C)OC (some centres unmarked)"
  censoring operator: ">"
  recorded number: 250
- compound: "CC[C@H]1OC(=O)[C@H](C)[C@@H](O[C@H]2C[C@@](C)(OC)[C@](O)(CNCC3CCC(=O)N3)[C@H](C)O2)[C@H](C)[C@@H](O[C@@H]2O[C@H](C)C[C@H]3[C@H]2OC(C(F)(F)F)N3C)[C@](C)(O)C[C@@H](C)CN[C@H](C)[C@@H](O)[C@]1(C)O (some centres unmarked)"
  censoring operator: "="
  recorded number: 32
- compound: "CC[C@H]1OC(=O)[C@H](C)[C@@H](O[C@H]2C[C@@](C)(OC)[C@](O)(CNCCN3CCCC3=O)[C@H](C)O2)[C@H](C)[C@@H](O[C@@H]2O[C@H](C)C[C@H]3[C@H]2OC(C(F)(F)F)N3C)[C@](C)(O)C[C@@H](C)CN[C@H](C)[C@@H](O)[C@]1(C)O (some centres unmarked)"
  censoring operator: "="
  recorded number: 40
- compound: "CC[C@H]1OC(=O)[C@H](C)[C@@H](O[C@H]2C[C@@](C)(OC)[C@](O)(CNCCOCCO)[C@H](C)O2)[C@H](C)[C@@H](O[C@@H]2O[C@H](C)C[C@H]3[C@H]2OC(C(F)(F)F)N3C)[C@](C)(O)C[C@@H](C)CN[C@H](C)[C@@H](O)[C@]1(C)O (some centres unmarked)"
  censoring operator: "="
  recorded number: 40
- compound: "CCNC[C@]1(O)[C@H](C)O[C@@H](O[C@H]2[C@H](C)[C@@H](O[C@@H]3O[C@H](C)C[C@H]4[C@H]3OC(C(F)(F)F)N4C)[C@](C)(O)C[C@@H](C)CN[C@H](C)[C@@H](O)[C@](C)(O)[C@@H](CC)OC(=O)[C@@H]2C)C[C@@]1(C)OC (some centres unmarked)"
  censoring operator: "="
  recorded number: 5
